FYI, the data here is from patent US20040053822A1.

target: HLA-B*5301 (human); experiment: competition vs 125I probe peptide, purified HLA
pIC50: −log10 of the molar value.
recorded-endpoint: pIC50

Solved entries (count: 3):
# binder, endpoint-result
records = [
    ("FPTTMNYPI [MAGE3.71.F1I9 FPTTMNYPI]", 8.07),
    ("FPKAGLLIIV [MAGE3.196.F1 FPKAGLLIIV]", 5.33),
    ("FPIGHLYIFA [MAGE3.170.F1 FPIGHLYIFA]", 6.75),
]

I: FPKAGLLIII [MAGE3.196.F1I10 FPKAGLLIII]
II: FPIGHLYIFI [MAGE3.170.F1I10 FPIGHLYIFI]
Query string: In the pair I and II , the larger recorded pIC50 belongs to which? Please indicate the selected item by its label.
Result string: II
